System: Botryosphaeria dothidea
Experiment: Antifungal activity against Botryosphaeria dothidea CICC 2678 after 48 hrs by broth dilution assay
Type: functional
Conditions: CICC 2678, 48 h
// reported MIC for each item listed
endpoint: MIC

CC(=O)N1CCN(c2ccc(OCC3COC(Cn4ccnc4)(c4ccc(Cl)cc4Cl)O3)cc2)CC1 (stereo unspecified) [KETOCONAZOLE]; 3.1 µg/mL
CO[C@H]1CO[C@@]2(CC3=CC(=O)[C@@](C)(O)[C@@H](OC(=O)c4c(C)cc(O)cc4O)[C@@H]3CO2)C1; > 50 µg/mL
C/C=C(\C)[C@H](OC(C)=O)[C@H](C)C(=O)O[C@@]1(C)C(=O)C=C2C=C(C3=C(C)CCCC3=O)OC=C2C1=O; 13 µg/mL
CO[C@@H]1CO[C@@]2(CC3=CC(=O)[C@@](C)(O)[C@@H](OC(=O)c4c(C)cc(O)cc4O)[C@@H]3CO2)C1; > 50 µg/mL
C/C=C(\C)[C@H](OC(C)=O)[C@H](C)C(=O)O[C@@]1(C)C(=O)C=C2C=C(c3c(C)cccc3O)OC=C2C1=O; 3.1 µg/mL
C/C=C(\C)[C@H](OC(C)=O)[C@H](C)C(=O)O[C@@]1(C)C(=O)C2=COC(C3=C(C)CCCC3=O)=CC2=C(Cl)C1=O; 13 µg/mL
